Reference source for all entries: ChEMBL document CHEMBL3817825

# Tested on: Escherichia coli
# Test name: Antibacterial activity against Escherichia coli DH52 after 24 hrs by two fold serial dilution method
# Format: functional
# Condition details: DH52, 24 h
What log10 of MIC was measured for each of the following?
Reminder: these figures are log10 of reported MIC, in µM before transformation.

Hey, quick one: what's log10 of MIC for each of these?
1. CCCCCCCCCCCCn1c(CCCC)nc(Cl)c1/C=N/N1C(=O)c2cccc3c(N4CCOCC4)ccc(c23)C1=O
2. CCCCc1nc(Cl)c(/C=N/N2C(=O)c3cccc4c(N5CCOCC5)ccc(c34)C2=O)n1Cc1cccc(F)c1
3. CCCCCCCCn1c(CCCC)nc(Cl)c1/C=N/N1C(=O)c2cccc3c(N4CCOCC4)ccc(c23)C1=O
4. CCCCc1nc(Cl)c(/C=N/N2C(=O)c3cccc4c(N5CCOCC5)ccc(c34)C2=O)n1Cc1ccc(F)cc1
5. CCCCc1nc(Cl)c(/C=N/N2C(=O)c3cccc4c(N5CCOCC5)ccc(c34)C2=O)n1Cc1ccc(C)cc1
6. CCCCCCCCCCn1c(CCCC)nc(Cl)c1/C=N/N1C(=O)c2cccc3c(N4CCOCC4)ccc(c23)C1=O
7. CCn1cc(C(=O)O)c(=O)c2cc(F)c(N3CCNCC3)cc21
8. CCCCc1nc(Cl)c(/C=N/N2C(=O)c3cccc4c(Br)ccc(c34)C2=O)[nH]1

[2.90, 2.64, 2.64, 2.95, 2.95, 2.62, 0.48, 3.05]

# input compound: "CCCCc1nc(Cl)c(/C=N/N2C(=O)c3cccc4c(N5CCCC5)ccc(c34)C2=O)[nH]1" ; wanted: its log10 of MIC
2.45

====

# Test system: Bacillus subtilis
# Test name: Antibacterial activity against Bacillus subtilis ATCC6633 after 24 hrs by two fold serial dilution method
# Type: functional
# Condition details: ATCC6633, 24 h
Label t when MIC is strictly below 30 µM; otherwise label f.

Study these solved cases before continuing.
[
  {
    "Entry smiles": "CCn1cc(C(=O)O)c(=O)c2cc(F)c(N3CCNCC3)cc21",
    "Study target": "Bacillus subtilis",
    "Label class": "t"
  },
  {
    "Entry smiles": "CCCCc1nc(Cl)c(/C=N/N2C(=O)c3cccc4c(N5CCOCC5)ccc(c34)C2=O)n1Cc1cccc(F)c1",
    "Study target": "Bacillus subtilis",
    "Label class": "f"
  },
  {
    "Entry smiles": "CCCCc1nc(Cl)c(/C=N/N2C(=O)c3cccc4c(N5CCOCC5)ccc(c34)C2=O)n1Cc1cccc(Cl)c1",
    "Study target": "Bacillus subtilis",
    "Label class": "t"
  },
  {
    "Entry smiles": "CCCCCCCn1c(CCCC)nc(Cl)c1/C=N/N1C(=O)c2cccc3c(N4CCOCC4)ccc(c23)C1=O",
    "Study target": "Bacillus subtilis",
    "Label class": "f"
  },
  {
    "Entry smiles": "CCCCc1nc(Cl)c(/C=N/N2C(=O)c3cccc4c(N5CCOCC5)ccc(c34)C2=O)n1Cc1ccc(Cl)c(Cl)c1",
    "Study target": "Bacillus subtilis",
    "Label class": "f"
  },
  {
    "Entry smiles": "CCCCc1nc(Cl)c(/C=N/N2C(=O)c3cccc4c(N5CCOCC5)ccc(c34)C2=O)n1Cc1ccc(Cl)cc1",
    "Study target": "Bacillus subtilis",
    "Label class": "f"
  }
]

Please state whether MIC is below 30 µM for "CCCCc1nc(Cl)c(/C=N/N2C(=O)c3cccc4c(N5CCOCC5)ccc(c34)C2=O)n1Cc1ccc(OC)cc1"
f

====

What MIC was measured for each of the following?
# Tested on: Saccharomyces cerevisiae
# Test name: Antifungal activity against Beer yeast ATCC9763 after 24 hrs by two fold serial dilution method
# Format: functional
# Condition details: ATCC9763, 24 h
Give bare numbers, in µM.

[
  {
    "Entry smiles": "CCCCCCCCCCCCn1c(CCCC)nc(Cl)c1/C=N/N1C(=O)c2cccc3c(N4CCOCC4)ccc(c23)C1=O",
    "MIC, µM": 400
  },
  {
    "Entry smiles": "CCCCc1nc(Cl)c(/C=N/N2C(=O)c3cccc4c(N5CCOCC5)ccc(c34)C2=O)n1Cc1ccc(OC)cc1",
    "MIC, µM": 220
  },
  {
    "Entry smiles": "CCCCCn1c(CCCC)nc(Cl)c1/C=N/N1C(=O)c2cccc3c(N4CCOCC4)ccc(c23)C1=O",
    "MIC, µM": 480
  },
  {
    "Entry smiles": "CCCCc1nc(Cl)c(/C=N/N2C(=O)c3cccc4c(N5CCOCC5)ccc(c34)C2=O)n1Cc1ccc(C)cc1",
    "MIC, µM": 450
  },
  {
    "Entry smiles": "CCCCc1nc(Cl)c(/C=N/N2C(=O)c3cccc4c(N5CCOCC5)ccc(c34)C2=O)n1Cc1ccccc1Cl",
    "MIC, µM": 430
  },
  {
    "Entry smiles": "CCCCc1nc(Cl)c(/C=N/N2C(=O)c3cccc4c(N5CCOCC5)ccc(c34)C2=O)n1Cc1ccc(Cl)cc1Cl",
    "MIC, µM": 370
  },
  {
    "Entry smiles": "CCCCc1nc(Cl)c(/C=N/N2C(=O)c3cccc4c(N5CCOCC5)ccc(c34)C2=O)n1Cc1ccc([N+](=O)[O-])cc1",
    "MIC, µM": 420
  }
]

# input molecule: "CCCCc1nc(Cl)c(/C=N/N2C(=O)c3cccc4c(N5CCOCC5)ccc(c34)C2=O)n1Cc1cccc(F)c1" ; wanted: its MIC
440

====

# Test system: Micrococcus luteus
# Test name: Antibacterial activity against Micrococcus luteus ATCC4698 after 24 hrs by two fold serial dilution method
# Format: functional
# Condition details: ATCC4698, 24 h
Metric name: MIC (µM)
Numbers only, in µM.

Would you please look over these solved cases?
[
  {
    "Entry smiles": "CCCCc1nc(Cl)c(/C=N/N2C(=O)c3cccc4c(Br)ccc(c34)C2=O)[nH]1",
    "Study target": "Micrococcus luteus",
    "Endpoint value": 1110
  },
  {
    "Entry smiles": "CCCCc1nc(Cl)c(/C=N/N2C(=O)c3cccc4c(N5CCOCC5)ccc(c34)C2=O)n1Cc1ccccc1Cl",
    "Study target": "Micrococcus luteus",
    "Endpoint value": 870
  },
  {
    "Entry smiles": "CCCCc1nc(Cl)c(/C=N/N2C(=O)c3cccc4c(N5CCOCC5)ccc(c34)C2=O)n1Cc1ccc(OC)cc1",
    "Study target": "Micrococcus luteus",
    "Endpoint value": 870
  }
]

Give Micrococcus luteus MIC for "CCCCCCCCCCCCn1c(CCCC)nc(Cl)c1/C=N/N1C(=O)c2cccc3c(N4CCOCC4)ccc(c23)C1=O"
400

====

# Tested on: Bacillus subtilis
# Test name: Antibacterial activity against Bacillus subtilis ATCC6633 after 24 hrs by two fold serial dilution method
# Format: functional
# Condition details: ATCC6633, 24 h
Metric name: MIC
Please don't drop the unit; write it after the number.

[
  {
    "Entry smiles": "CCCCc1nc(Cl)c(/C=N/N2C(=O)c3cccc4c(N5CCOCC5)ccc(c34)C2=O)n1Cc1ccc(F)cc1",
    "MIC": "440 µM"
  },
  {
    "Entry smiles": "CCCCc1nc(Cl)c(/C=N/N2C(=O)c3cccc4c(N5CCOCC5)ccc(c34)C2=O)[nH]1",
    "MIC": "550 µM"
  },
  {
    "Entry smiles": "CCCCc1nc(Cl)c(/C=N/N2C(=O)c3cccc4c(N5CCOCC5)ccc(c34)C2=O)n1Cc1ccccc1Cl",
    "MIC": "430 µM"
  }
]

Hey, quick one: what's MIC for each of these?
1. CCCCCCCCCCCCn1c(CCCC)nc(Cl)c1/C=N/N1C(=O)c2cccc3c(N4CCOCC4)ccc(c23)C1=O
2. CCCCCCCCn1c(CCCC)nc(Cl)c1/C=N/N1C(=O)c2cccc3c(N4CCOCC4)ccc(c23)C1=O
3. CCCCc1nc(Cl)c(/C=N/N2C(=O)c3cccc4c(Br)ccc(c34)C2=O)[nH]1

1. 800 µM
2. 440 µM
3. 560 µM

Hey, quick one: what's MIC for each of these?
1. CCCCc1nc(Cl)c(/C=N/N2C(=O)c3cccc4c(N5CCCCC5)ccc(c34)C2=O)[nH]1
2. CCCCCn1c(CCCC)nc(Cl)c1/C=N/N1C(=O)c2cccc3c(N4CCOCC4)ccc(c23)C1=O
3. CCCCc1nc(Cl)c(/C=N/N2C(=O)c3cccc4c(N5CCOCC5)ccc(c34)C2=O)n1Cc1ccccc1F

1. 280 µM
2. 240 µM
3. 440 µM

====

What MIC was measured for each of the following?
# Tested on: Bacillus subtilis
# Test name: Antibacterial activity against Bacillus subtilis ATCC6633 after 24 hrs by two fold serial dilution method
# Type: functional
# Condition details: ATCC6633, 24 h
One number for each entry, in µM.

Would you please look over these solved cases?
[
  {
    "Entry smiles": "CCCCc1nc(Cl)c(/C=N/N2C(=O)c3cccc4c(N5CCOCC5)ccc(c34)C2=O)n1Cc1ccc(C)cc1",
    "Study target": "Bacillus subtilis",
    "MIC (µM)": 890
  },
  {
    "Entry smiles": "CCCCc1nc(Cl)c(/C=N/N2C(=O)c3cccc4c(N5CCOCC5)ccc(c34)C2=O)n1Cc1ccc([N+](=O)[O-])cc1",
    "Study target": "Bacillus subtilis",
    "MIC (µM)": 210
  },
  {
    "Entry smiles": "CCCCc1nc(Cl)c(/C=N/N2C(=O)c3cccc4c(N5CCCC5)ccc(c34)C2=O)[nH]1",
    "Study target": "Bacillus subtilis",
    "MIC (µM)": 570
  }
]

Continue with the next molecule.
Give Bacillus subtilis MIC for "CCCCc1nc(Cl)c(/C=N/N2C(=O)c3cccc4c(N5CCOCC5)ccc(c34)C2=O)n1Cc1ccc(Cl)cc1Cl"
370
